experimental-target: T1, HER2ECDHis (human, UniProt P04626 23-653, biotinylated in the cross-block ELISA (sites not given))
T1 construct: range 1-653; expressed in HEK-293F; also called soluble HER2; biotinylated HER2ECDHis
assay-notes: ELISA; competitor C1
Response field label: string, one of yes (1) (% binding vs no competitor strictly below 300%) or no (0).

binder	class-label
HuMab 132 (antibody, V domains shown) VH: QVQLVQSGAEVKKPGASVKVSCKASGYTFTSYGISWVRQAPGQGLEWMGWISAYNGNSNYVQKFQGRVTMTTDTTTSTAYMELRSLTSDDTAVYYCAREYSYDSGTYFYYGMDVWGQGTTVTVSS VL: EIVLTQSPATLSLSPGERATLSCRASQSVSSYLAWYQQKPGQAPRLLIYDASNRATGIPARFSGSGSGTDFTLTISSLEPEDFAVYYCQQRSNWPMYTFGQGTKLEIK	no (0)
HuMab 059 (antibody, V domains shown, also called PC1014-059) VH: QVQLVQSGAEVKKPGASVRVPCKASGYTFTRYGISWVRQAPGQGLEWMGWISAYNGKTYYAQKLQGRVTMTTDTSTSTAYMELRSLRSDDTAVYYCARSPLLWFEELYFDYWGQGTLVTVSS VL: EIVLTQSPGTLSLSPGERATLSCRASQSVSSTYLAWYQQKPGQAPRLLIYGASSRATGIPDRFSGSGSGTDFTLTISRLEPEDFAVYYCQQYGTSLFTFGPGTKVDIK	yes (1)
HuMab 153 (antibody, V domains shown) VH: QVQLVESGGGVVQPGRSLRLSCAASGFTFSDYVIHWVRQAPGKGLEWVTVISYDGSNKYYADSVKGRFTISRDNSKNTLYLQMNSLSAEDTAMYYCARGGITGTTGVFDYWGQGTLVTVSS VL: DIQMTQSPSSLSASVGDRVTITCRASQGISSWLAWYQQKPEKAPKSLIYDASSLQSGVPSRFSGSGYGTDFSLTISSLQPEDFAIYYCQQYKSYPITFGQGTRLEIK	yes (1)
HuMab 098 (antibody, V domains shown, also called TH1014-098; PC1014-098) VH: EVQLLESGGGLVQPGGSLRLSCAASGFTFSNYGMSWVRQAPGKGLEWVSAISGSAYSTYYADSVKGRFTISRDNSKNTLWLQMNSLRAEDTAVYYCAKAHYHGSGSYYTLFDYWGQGTLVTVSS VL: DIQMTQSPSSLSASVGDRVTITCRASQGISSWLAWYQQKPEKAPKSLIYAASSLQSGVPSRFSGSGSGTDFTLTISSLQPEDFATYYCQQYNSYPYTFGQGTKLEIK	yes (1)
HuMab 127 (antibody, V domains shown) VH: EVQLVQSGAEVKKPGESLTISCKGSGYSFSIYWIGWVRQMPGKGLEWMGIIFPGDSDIRYSPSFQGQVTISADKSISTAYLQWSSLKASDTAMYYCARQPGDWSPRHWYFDLWGRGTLVTVSS VL: VIWMTQSPSLLSASTGDRVTISCRMSQGISSYLAWYQQKPGKAPELLIYAASTLQSGVPSRFSGSGSGTDFTLTISYLQSEDFATYYCQQYYSFPLTFGGGTKVEIK	yes (1)
HuMab 159 (antibody, V domains shown, also called TH1014-159; PC1014-159) VH: EVQLVQSGAEVKKPGESLKISCKGSGYNFTSYWIGWVRQMPGKGLEWMGIIYPGDSDTRYSPSFQGQVTISADKSISTAYLQWSSLKASDTAMYYCARWGTYYDILTGYFNWFDPWGQGTLVTVSS VL: DIQMTQSPSSLSASVGDRVTITCRASQGISSWLAWYQQKPEKAPKSLIYAASSLQSGVPSRFSGSGSGTDFTLTISSLQPEDFATYYCQQYYIYPWTFGQGTKVEIK	yes (1)
